- method_summary: Apparent permeability across apical to basolateral side in human Caco-2 cells at 10 uM incubated for 2 hrs by LC-MS/MS analysis
- Format: ADME, cell-based
property_label: Papp A→B at 2 h, 10 µM (×10⁻⁶ cm/s)
Give a bare numeral; the unit ×10⁻⁶ cm/s is implied.

chem_smiles: COc1ncc(-c2cc(OC3CCOCC3)c3ncnc(C)c3c2)cc1NS(=O)(=O)c1ccc(F)cc1F
Papp A→B at 2 h, 10 µM, ×10⁻⁶ cm/s: 21.2

Now look at this entry.
Reported Papp A→B at 2 h, 10 µM for COc1cc(CN(c2cc(-c3cc(OC4CCOCC4)c4ncnc(C)c4c3)cnc2OC)S(=O)(=O)c2ccc(F)cc2F)c([N+](=O)[O-])cc1OC was 0.49

====

# maps each entry to its half-life at 1 µM
- method_summary: Stability in rat plasma assessed as half life at 1 uM measured upto 120 min by LC-MS/MS analysis
- Type: ADME, cell-free

Reported half-life at 1 µM for COc1ncc(-c2cc(OC3CCOCC3)c3ncnc(C)c3c2)cc1NS(=O)(=O)c1ccc(F)cc1F was > 120 min

Reported half-life at 1 µM for COc1cc(CN(c2cc(-c3cc(OC4CCOCC4)c4ncnc(C)c4c3)cnc2OC)S(=O)(=O)c2ccc(F)cc2F)c([N+](=O)[O-])cc1OC was > 120 min

====

- measured_on: Phosphatidylinositol 4,5-bisphosphate 3-kinase catalytic subunit beta isoform (Homo sapiens, UniProt P42338)
- Sequence (P42338 whole entry, canonical isoform): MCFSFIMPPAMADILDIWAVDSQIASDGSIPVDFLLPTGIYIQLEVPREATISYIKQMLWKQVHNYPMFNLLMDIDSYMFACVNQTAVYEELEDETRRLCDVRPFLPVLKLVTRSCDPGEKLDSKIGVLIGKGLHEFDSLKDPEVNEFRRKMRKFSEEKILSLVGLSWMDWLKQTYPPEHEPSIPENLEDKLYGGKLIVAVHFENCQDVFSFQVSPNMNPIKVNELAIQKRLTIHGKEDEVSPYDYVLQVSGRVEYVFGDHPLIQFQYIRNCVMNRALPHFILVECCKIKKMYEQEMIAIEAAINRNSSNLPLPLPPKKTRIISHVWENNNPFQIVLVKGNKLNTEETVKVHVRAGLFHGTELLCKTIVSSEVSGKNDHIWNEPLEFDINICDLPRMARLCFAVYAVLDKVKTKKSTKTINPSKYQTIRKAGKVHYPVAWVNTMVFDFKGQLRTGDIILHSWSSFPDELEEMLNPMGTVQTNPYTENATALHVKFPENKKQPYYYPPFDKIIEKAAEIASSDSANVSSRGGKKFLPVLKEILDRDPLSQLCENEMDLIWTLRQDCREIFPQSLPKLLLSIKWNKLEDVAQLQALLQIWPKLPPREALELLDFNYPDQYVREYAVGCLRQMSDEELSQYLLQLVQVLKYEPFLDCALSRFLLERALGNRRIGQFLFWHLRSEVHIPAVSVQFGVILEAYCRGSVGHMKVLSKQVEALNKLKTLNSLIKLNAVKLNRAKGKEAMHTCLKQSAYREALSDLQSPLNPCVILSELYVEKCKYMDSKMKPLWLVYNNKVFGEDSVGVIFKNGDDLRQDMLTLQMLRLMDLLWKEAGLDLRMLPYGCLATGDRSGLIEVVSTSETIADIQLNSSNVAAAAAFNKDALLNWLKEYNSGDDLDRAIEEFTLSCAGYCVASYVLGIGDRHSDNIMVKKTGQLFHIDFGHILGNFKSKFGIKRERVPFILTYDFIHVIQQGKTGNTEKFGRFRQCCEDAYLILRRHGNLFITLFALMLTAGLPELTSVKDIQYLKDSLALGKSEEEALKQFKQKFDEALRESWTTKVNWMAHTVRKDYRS
- method_summary: Inhibition of PI3K beta (unknown origin) using PIP2 as substrate incubated in dark at room temperature for 1 hr in presence of ATP by ADP-Glo luminescent assay
property_label: IC50 (nM)
Give a bare numeral; the unit nM is implied.

Reported IC50 for COc1cc(CN(c2cc(-c3cc(OC4CCOCC4)c4ncnc(C)c4c3)cnc2OC)S(=O)(=O)c2ccc(F)cc2F)c([N+](=O)[O-])cc1OC was 838

====

- measured_on: Phosphatidylinositol 4,5-bisphosphate 3-kinase catalytic subunit alpha isoform (Homo sapiens)
- Sequence (P42336 whole entry, canonical isoform): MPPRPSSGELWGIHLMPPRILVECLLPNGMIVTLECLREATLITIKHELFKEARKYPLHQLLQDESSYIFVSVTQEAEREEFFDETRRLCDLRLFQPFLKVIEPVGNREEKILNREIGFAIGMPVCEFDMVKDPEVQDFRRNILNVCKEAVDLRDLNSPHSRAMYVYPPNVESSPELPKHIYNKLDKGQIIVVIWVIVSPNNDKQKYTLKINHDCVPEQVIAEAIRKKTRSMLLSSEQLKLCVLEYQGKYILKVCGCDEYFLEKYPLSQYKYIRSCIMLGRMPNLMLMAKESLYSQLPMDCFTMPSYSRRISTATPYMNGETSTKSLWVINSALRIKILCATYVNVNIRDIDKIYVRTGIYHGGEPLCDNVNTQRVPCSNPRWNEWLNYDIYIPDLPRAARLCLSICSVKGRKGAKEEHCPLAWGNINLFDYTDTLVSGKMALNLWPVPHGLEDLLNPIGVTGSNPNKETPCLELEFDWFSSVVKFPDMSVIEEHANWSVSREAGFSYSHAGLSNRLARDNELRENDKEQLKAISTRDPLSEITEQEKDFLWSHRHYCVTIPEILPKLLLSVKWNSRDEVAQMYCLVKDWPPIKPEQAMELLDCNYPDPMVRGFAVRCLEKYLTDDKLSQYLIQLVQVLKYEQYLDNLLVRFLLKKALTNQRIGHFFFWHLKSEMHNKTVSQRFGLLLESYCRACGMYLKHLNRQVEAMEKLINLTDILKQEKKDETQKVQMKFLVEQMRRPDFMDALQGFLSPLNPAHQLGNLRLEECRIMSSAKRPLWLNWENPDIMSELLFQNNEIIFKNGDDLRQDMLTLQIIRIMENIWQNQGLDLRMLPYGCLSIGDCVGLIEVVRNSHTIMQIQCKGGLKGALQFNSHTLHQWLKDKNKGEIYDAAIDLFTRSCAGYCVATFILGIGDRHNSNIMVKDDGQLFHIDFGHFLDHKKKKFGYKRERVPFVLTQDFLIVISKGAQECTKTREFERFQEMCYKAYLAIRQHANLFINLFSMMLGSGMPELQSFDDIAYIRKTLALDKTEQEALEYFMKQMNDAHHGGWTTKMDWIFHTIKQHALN
- method_summary: Inhibition of PI3K alpha (unknown origin) using PIP2 as substrate incubated in dark at room temperature for 1 hr in presence of ATP by ADP-Glo luminescent assay
property_label: IC50
Reply with the number and its unit after it.

Reported IC50 for COc1cc(CN(c2cc(-c3cc(OC4CCOCC4)c4ncnc(C)c4c3)cnc2OC)S(=O)(=O)c2ccc(F)cc2F)c([N+](=O)[O-])cc1OC was 343 nM

====

- method_summary: Stability in rat liver microsomes assessed as half life at 1 uM in presence of NADPH by LC-MS/MS analysis
- Type: ADME, Microsome
# maps each entry to its half-life at 1 µM
Give a bare numeral; the unit min is implied.

chem_smiles: COc1cc(CN(c2cc(-c3cc(OC4CCOCC4)c4ncnc(C)c4c3)cnc2OC)S(=O)(=O)c2ccc(F)cc2F)c([N+](=O)[O-])cc1OC
measurement_unit: min
half-life at 1 µM: 1.82

Now look at this entry.
Reported half-life at 1 µM for COc1ncc(-c2cc(OC3CCOCC3)c3ncnc(C)c3c2)cc1NS(=O)(=O)c1ccc(F)cc1F was 104

====

- measured_on: Phosphatidylinositol 4,5-bisphosphate 3-kinase catalytic subunit delta isoform (Homo sapiens)
- Sequence (O00329 whole entry): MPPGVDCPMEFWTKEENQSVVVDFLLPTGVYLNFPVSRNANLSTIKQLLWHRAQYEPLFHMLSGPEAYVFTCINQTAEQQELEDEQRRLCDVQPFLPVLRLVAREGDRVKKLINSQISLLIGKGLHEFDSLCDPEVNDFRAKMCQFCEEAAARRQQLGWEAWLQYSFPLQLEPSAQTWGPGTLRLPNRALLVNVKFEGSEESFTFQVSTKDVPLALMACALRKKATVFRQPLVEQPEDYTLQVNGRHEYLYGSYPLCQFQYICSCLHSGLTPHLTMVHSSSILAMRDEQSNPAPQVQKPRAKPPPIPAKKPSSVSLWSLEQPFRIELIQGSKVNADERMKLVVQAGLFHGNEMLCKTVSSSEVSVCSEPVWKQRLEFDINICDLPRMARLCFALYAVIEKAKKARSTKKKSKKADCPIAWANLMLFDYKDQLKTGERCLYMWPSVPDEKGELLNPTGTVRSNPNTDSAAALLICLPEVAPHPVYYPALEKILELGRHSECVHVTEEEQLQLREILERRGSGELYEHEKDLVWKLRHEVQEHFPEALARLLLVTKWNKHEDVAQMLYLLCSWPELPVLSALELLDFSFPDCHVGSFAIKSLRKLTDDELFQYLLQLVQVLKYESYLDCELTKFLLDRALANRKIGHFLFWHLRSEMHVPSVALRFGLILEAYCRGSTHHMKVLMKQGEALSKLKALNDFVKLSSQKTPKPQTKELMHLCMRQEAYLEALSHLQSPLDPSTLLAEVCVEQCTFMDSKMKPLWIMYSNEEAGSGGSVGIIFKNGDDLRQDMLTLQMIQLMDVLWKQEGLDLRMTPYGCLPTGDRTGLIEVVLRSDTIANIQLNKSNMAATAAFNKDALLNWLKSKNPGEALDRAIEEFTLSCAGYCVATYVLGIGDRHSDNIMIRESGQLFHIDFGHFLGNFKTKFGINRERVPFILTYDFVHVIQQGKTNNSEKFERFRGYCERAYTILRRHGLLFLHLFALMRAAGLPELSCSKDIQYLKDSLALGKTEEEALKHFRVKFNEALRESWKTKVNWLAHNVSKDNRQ
- method_summary: Inhibition of PI3K delta (unknown origin) using PIP2 as substrate incubated in dark at room temperature for 1 hr in presence of ATP by ADP-Glo luminescent assay
property_label: IC50 (µM)
Give a bare numeral; the unit µM is implied.

Reported IC50 for COc1cc(CN(c2cc(-c3cc(OC4CCOCC4)c4ncnc(C)c4c3)cnc2OC)S(=O)(=O)c2ccc(F)cc2F)c([N+](=O)[O-])cc1OC was 3.01

====

- System: MGC-803
- method_summary: Antiproliferative activity against human MGC-803 cells assessed as reduction in cell viability irradiated with 365 nm of UV for 5 mins and incubated in dark for 96 hrs by MTT assay
- Type: functional, cell-based
- experimental_context: MGC-803, light or radiation study
property_label: pIC50
Bear in mind: pIC50 is minus log10 of a mol/L concentration; give just that figure.

Reported pIC50 for COc1cc(CN(c2cc(-c3cc(OC4CCOCC4)c4ncnc(C)c4c3)cnc2OC)S(=O)(=O)c2ccc(F)cc2F)c([N+](=O)[O-])cc1OC was 6.48

====

- method_summary: Stability in dog liver microsomes assessed as half life at 1 uM in presence of NADPH measured upto 120 min by LC-MS/MS analysis
- Type: ADME, Canis lupus familiaris, Microsome
property_label: half-life at 1 µM (min)
Give a bare numeral; the unit min is implied.

Reported half-life at 1 µM for COc1cc(CN(c2cc(-c3cc(OC4CCOCC4)c4ncnc(C)c4c3)cnc2OC)S(=O)(=O)c2ccc(F)cc2F)c([N+](=O)[O-])cc1OC was 4.62

====

- measured_on: Phosphatidylinositol 4,5-bisphosphate 3-kinase catalytic subunit alpha isoform (Homo sapiens)
- method_summary: Inhibition of PI3K alpha (unknown origin) using PIP2 as substrate irradiated with 365 nm of UV exposure for 2 mins and incubation in dark at room temperature for 1 hr in presence of ATP measured by ADP-Glo luminescent assay
property_label: IC50 (nM)
Give a bare numeral; the unit nM is implied.

Reported IC50 for COc1cc(CN(c2cc(-c3cc(OC4CCOCC4)c4ncnc(C)c4c3)cnc2OC)S(=O)(=O)c2ccc(F)cc2F)c([N+](=O)[O-])cc1OC was 0.58

====

- method_summary: Plasma protein binding in dog at 1 uM by LC-MS/MS analysis
- Format: ADME, cell-free, Canis lupus familiaris
- experimental_context: read-out: PPB (converted)
property_label: fraction unbound at 1 µM
// no unit string in output, number only

chem_smiles: COc1ncc(-c2cc(OC3CCOCC3)c3ncnc(C)c3c2)cc1NS(=O)(=O)c1ccc(F)cc1F
fraction unbound at 1 µM: 0.017

Now look at this entry.
Reported fraction unbound at 1 µM for COc1cc(CN(c2cc(-c3cc(OC4CCOCC4)c4ncnc(C)c4c3)cnc2OC)S(=O)(=O)c2ccc(F)cc2F)c([N+](=O)[O-])cc1OC was 0.005

====

- method_summary: Apparent permeability across basolateral to apical side in human Caco-2 cells at 10 uM incubated for 2 hrs by LC-MS/MS analysis
- Type: ADME, cell-based
# maps each entry to its Papp B→A at 2 h, 10 µM
Give a bare numeral; the unit nm/s is implied.

chem_smiles: COc1cc(CN(c2cc(-c3cc(OC4CCOCC4)c4ncnc(C)c4c3)cnc2OC)S(=O)(=O)c2ccc(F)cc2F)c([N+](=O)[O-])cc1OC
Papp B→A at 2 h, 10 µM / nm/s: 19.5

Now look at this entry.
Reported Papp B→A at 2 h, 10 µM for COc1ncc(-c2cc(OC3CCOCC3)c3ncnc(C)c3c2)cc1NS(=O)(=O)c1ccc(F)cc1F was 265

From: ChEMBL document CHEMBL5042472
